- Tested on: Escherichia coli TOP10
- assay_comment: shrunken log2 fold change of peptide-encoding DNA abundance (4.5 h post-induction vs induction); higher = less antimicrobial activity (less host growth inhibition)
- test_conditions: time post-induction: 4.5 h; library: site-saturation at positions 5, 18, 19, 20
Binary classification by shrunken log2 fold change, with -0.02 as an inclusive lower bound for true (1); all other cases are false (0).

# sequence_text, group_label
measured = [
    ("RRIRTRPPRLPRPRPRPWHLPRP", "true (1)"),
]

Req: In plain terms: is recorded shrunken log2 fold change at least -0.02 for `RRIRIRPPRLPRPRPRPLISPRP` ?
Resp: false (0)

Req: In plain terms: is recorded shrunken log2 fold change at least -0.02 for `RRIRPRPPRLPRPRPRPKMSPRP` ?
Resp: true (1)

Req: In plain terms: is recorded shrunken log2 fold change at least -0.02 for `RRIRIRPPRLPRPRPRPGIIPRP` ?
Resp: false (0)

Req: In plain terms: is recorded shrunken log2 fold change at least -0.02 for `RRIRTRPPRLPRPRPRPIIWPRP` ?
Resp: false (0)

====

- Test system: Escherichia coli TOP10
- assay_comment: shrunken log2 fold change of peptide-encoding DNA abundance (4.5 h post-induction vs induction); higher = less antimicrobial activity (less host growth inhibition)
- test_conditions: time post-induction: 4.5 h; library: site-saturation at positions 5, 18, 19, 20
Consider the following sequences; for each one, report its shrunken log2 fold change.
Give bare numbers.

Parameters: items (list). Returns: shrunken log2 fold change for each item.
1. RRIRDRPPRLPRPRPRPKHCPRP
2. RRIRNRPPRLPRPRPRPNVQPRP
3. RRIRQRPPRLPRPRPRPHLPPRP
4. RRIRERPPRLPRPRPRPFALPRP

Resp:
[0.0694, -0.128, 0.0272, -0.256]

Parameters: items (list). Returns: shrunken log2 fold change for each item.
1. RRIRKRPPRLPRPRPRPGCDPRP
2. RRIRERPPRLPRPRPRPVQQPRP
3. RRIRIRPPRLPRPRPRPRTSPRP
4. RRIRCRPPRLPRPRPRPKRLPRP
5. RRIRIRPPRLPRPRPRPTQLPRP
6. RRIRRRPPRLPRPRPRPNFAPRP

Resp:
0.826
-0.168
0.0339
0.0169
0.31
0.0508

Parameters: items (list). Returns: shrunken log2 fold change for each item.
1. RRIRTRPPRLPRPRPRPTQWPRP
2. RRIRQRPPRLPRPRPRPIYLPRP
3. RRIRGRPPRLPRPRPRPCPTPRP
4. RRIRMRPPRLPRPRPRPAEWPRP

Resp:
0.364
-0.163
0.0246
0.375

Parameters: items (list). Returns: shrunken log2 fold change for each item.
1. RRIRKRPPRLPRPRPRPQWLPRP
2. RRIRARPPRLPRPRPRPNPGPRP

Resp:
[0.0628, 0.462]

====

- Tested on: Escherichia coli TOP10
- assay_comment: shrunken log2 fold change of peptide-encoding DNA abundance (4.5 h post-induction vs induction); higher = less antimicrobial activity (less host growth inhibition)
- test_conditions: time post-induction: 4.5 h; library: site-saturation at positions 5, 18, 19, 20
Entries are sorted into classes by shrunken log2 fold change as follows: interval 1 = under -0.09, interval 2 = from -0.09 up to 0.05, interval 3 = 0.05 and over

See these solved cases before continuing.
# sequence_text, group_label
rows = [
    ("RRIRFRPPRLPRPRPRPVMFPRP", "interval 1"),
    ("RRIRIRPPRLPRPRPRPDYTPRP", "interval 2"),
    ("RRIRMRPPRLPRPRPRPLEKPRP", "interval 3"),
    ("RRIRRRPPRLPRPRPRPYGSPRP", "interval 2"),
    ("RRIRMRPPRLPRPRPRPWMQPRP", "interval 3"),
]

Req: Lab log: `RRIRQRPPRLPRPRPRPFEIPRP` — assign shrunken log2 fold change category
Resp: interval 2

Req: Lab log: `RRIRRRPPRLPRPRPRPVNGPRP` — assign shrunken log2 fold change category
Resp: interval 3

Req: Lab log: `RRIRCRPPRLPRPRPRPGQYPRP` — assign shrunken log2 fold change category
Resp: interval 1

Req: Lab log: `RRIRTRPPRLPRPRPRPKEAPRP` — assign shrunken log2 fold change category
Resp: interval 2

Req: Lab log: `RRIRSRPPRLPRPRPRPSSMPRP` — assign shrunken log2 fold change category
Resp: interval 1

====

- System: Escherichia coli TOP10
- assay_comment: shrunken log2 fold change of peptide-encoding DNA abundance (4.5 h post-induction vs induction); higher = less antimicrobial activity (less host growth inhibition)
- test_conditions: time post-induction: 4.5 h; library: site-saturation at positions 5, 18, 19, 20
Binary classification by shrunken log2 fold change, with 0.06 as an inclusive lower bound for met; all other cases are not met.

See these solved cases before continuing.
# sequence_text, group_label
measured = [
    ("RRIRGRPPRLPRPRPRPVSTPRP", "met"),
    ("RRIRMRPPRLPRPRPRPQHWPRP", "met"),
    ("RRIRHRPPRLPRPRPRPMRYPRP", "not met"),
    ("RRIRARPPRLPRPRPRPAGVPRP", "met"),
]

Attention now turns to another entry.
Req: In plain terms: is recorded shrunken log2 fold change at least 0.06 for `RRIRYRPPRLPRPRPRPPAMPRP` ?
Resp: not met

====

- Test system: Escherichia coli TOP10
- assay_comment: shrunken log2 fold change of peptide-encoding DNA abundance (4.5 h post-induction vs induction); higher = less antimicrobial activity (less host growth inhibition)
- test_conditions: time post-induction: 4.5 h; library: site-saturation at positions 5, 18, 19, 20
Consider the following sequences; for each one, report its shrunken log2 fold change.
One number for each entry.

# sequence_text, measured_parameter, data_value
data = [
    ("RRIRIRPPRLPRPRPRPDIRPRP", "shrunken log2 fold change", -0.00601),
    ("RRIRPRPPRLPRPRPRPRIPPRP", "shrunken log2 fold change", 0.243),
    ("RRIRWRPPRLPRPRPRPADVPRP", "shrunken log2 fold change", -0.305),
]

Parameters: items (list). Returns: shrunken log2 fold change for each item.
1. RRIRLRPPRLPRPRPRPPSTPRP
2. RRIRSRPPRLPRPRPRPYFPPRP
3. RRIRPRPPRLPRPRPRPYHTPRP
4. RRIRTRPPRLPRPRPRPCNDPRP

Resp:
1. 0.00129
2. -0.694
3. -1.66
4. -0.145

====

- Tested on: Escherichia coli TOP10;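 further: peptides expressed intracellularly from a pBAD plasmid library in pooled LB shake-flask culture, induced with 0.3% L-arabinose, DNA abundance read by NGS, three biological replicates, DESeq2 with apeglm shrinkage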
- assay_comment: shrunken log2 fold change of peptide-encoding DNA abundance (4.5 h post-induction vs induction); higher = less antimicrobial activity (less host growth inhibition)
- test_conditions: time post-induction: 4.5 h; library: site-saturation at positions 5, 18, 19, 20
measured_parameter: shrunken log2 fold change

# sequence_text, data_value
rows = [
    ("RRIRSRPPRLPRPRPRPDHLPRP", -0.0228),
    ("RRIRVRPPRLPRPRPRPNRHPRP", -0.195),
    ("RRIRHRPPRLPRPRPRPRELPRP", 0.234),
    ("RRIRQRPPRLPRPRPRPSGPPRP", -0.0826),
    ("RRIRERPPRLPRPRPRPVMGPRP", -0.123),
    ("RRIRSRPPRLPRPRPRPSSVPRP", -0.354),
    ("RRIRLRPPRLPRPRPRPNAGPRP", 0.0644),
    ("RRIRFRPPRLPRPRPRPHLHPRP", -0.511),
]

Parameters: items (list). Returns: shrunken log2 fold change for each item.
1. RRIRVRPPRLPRPRPRPKQEPRP
2. RRIRDRPPRLPRPRPRPDEEPRP

Resp:
1. 0.239
2. -0.00164

Parameters: items (list). Returns: shrunken log2 fold change for each item.
1. RRIRYRPPRLPRPRPRPVGHPRP
2. RRIRMRPPRLPRPRPRPPNDPRP
3. RRIRTRPPRLPRPRPRPVYPPRP
4. RRIRGRPPRLPRPRPRPCAAPRP
5. RRIRWRPPRLPRPRPRPMYVPRP
6. RRIRPRPPRLPRPRPRPWLAPRP
7. RRIRKRPPRLPRPRPRPIMPPRP
8. RRIRARPPRLPRPRPRPFQAPRP

Resp:
1: -0.076; 2: 0.574; 3: -0.00118; 4: 1.89; 5: -0.0461; 6: 0.343; 7: 0.099; 8: 0.0111

Parameters: items (list). Returns: shrunken log2 fold change for each item.
1. RRIRERPPRLPRPRPRPEGDPRP
2. RRIRMRPPRLPRPRPRPAYIPRP
3. RRIRARPPRLPRPRPRPDQSPRP
4. RRIRNRPPRLPRPRPRPSHLPRP
5. RRIRPRPPRLPRPRPRPLGKPRP

Resp:
0.0441
0.768
0.113
-0.438
-0.361

Parameters: items (list). Returns: shrunken log2 fold change for each item.
1. RRIRCRPPRLPRPRPRPNWTPRP
2. RRIRFRPPRLPRPRPRPKQGPRP
3. RRIRDRPPRLPRPRPRPMDKPRP
4. RRIRLRPPRLPRPRPRPSRIPRP
5. RRIRKRPPRLPRPRPRPVGWPRP
6. RRIRKRPPRLPRPRPRPWHQPRP
7. RRIRSRPPRLPRPRPRPRINPRP
8. RRIRPRPPRLPRPRPRPSKTPRP

Resp:
1. -0.0217
2. -0.00975
3. -0.0384
4. -0.15
5. 0.897
6. -0.0165
7. -0.301
8. 0.0619
